meta.source: patent US20250195521A1

# TARGET: KRAS G12C (Homo sapiens (Human), UniProt P01116+P62937, G12C)
# MEASUREMENT_DESCRIPTION: Ras-Raf disruption/FRET/MOA assay (BRAF RBD, Cyclophilin A)
# Type: biochemical
# REPORTED_CONDITIONS: read-out: KRAS G12C FRET IC50
pIC50: −log10 of the molar value.
Attribute: pIC50

MOLECULE | OBSERVATION_TYPE | RESULT
CCn1c(-c2cccnc2[C@H](C)OC)c2c3cc(ccc31)-c1csc(n1)C[C@H](NC(=O)[C@H](C(C)C)N(C)C(=O)N1CCC13COC3)C(=O)N1CCC[C@H](N1)C(=O)OCC(C)(C)C2 | pIC50 | 7.00 to 8.00

Record request: pIC50 value, item "CCn1c(-c2cccnc2[C@H](C)OC)c2c3cc(ccc31)-c1cc(c3cn[nH]c3c1)C[C@H](NC(=O)[C@H](C(C)C)N(C)C(C)=O)C(=O)N1CCC[C@H](N1)C(=O)OCC(C)(C)C2" 5.00 to 6.00

Entry "CCn1c(-c2cc(N3CCN(C)CC3)cnc2[C@H](C)OC)c2c3cc(ccc31)-c1csc(n1)C[C@H](NC(=O)[C@H](C(C)C)N(C)C(=O)N1CC(C3COC3)C1)C(=O)N1CCC[C@H](N1)C(=O)OCC(C)(C)C2" : reported pIC50 = ? 7.00 to 8.00

Look up pIC50: "CCn1c(-c2cccnc2[C@H](C)OC)c2c3cc(ccc31)-c1csc(n1)C[C@H](NC(=O)[C@H](C(C)C)N(C)C(=O)N1CCOCC13COC3)C(=O)N1CCC[C@H](N1)C(=O)OCC(C)(C)C2" 6.00 to 7.00

Form field: reported pIC50 of "CCN(CC)C(=O)N(C)[C@H](C(=O)N[C@H]1Cc2nc(cs2)-c2ccc3c(c2)c(c(-c2cccnc2[C@H](C)OC)n3CC)CC(C)(C)COC(=O)[C@@H]2CCCN(N2)C1=O)C(C)C" 7.00 to 8.00

---

# Test system: NCI-H358 cells (K-Ras G12C)
# MEASUREMENT_DESCRIPTION: CellTiter-Glo cell viability, NCI-H358
# Type: cell-based, human
# REPORTED_CONDITIONS: Homo sapiens, NCI-H358, 120 h, K-Ras G12C, 5-day treatment; read-out: H358 Cell Viability IC50
OBSERVATION_TYPE: IC50

COMPOUND | IC50
CCn1c(-c2cccnc2[C@H](C)OC)c2c3cc(ccc31)-c1csc(n1)C[C@H](NC(=O)[C@H](C(C)C)N1CCCN(C)C1=O)C(=O)N1CCC[C@H](N1)C(=O)OCC(C)(C)C2 [Compound A317] | 100 to 1000 nM

// next item, IC50 requested
Recorded IC50 for CCn1c(-c2cc(N3CCN(C)CC3)cnc2[C@H](C)OC)c2c3cc(ccc31)-c1csc(n1)C[C@H](NC(=O)[C@H](C(C)C)N(C)C(=O)[C@@H]1OCC[C@@H]1c1ccccc1)C(=O)N1CCC[C@H](N1)C(=O)OCC(C)(C)C2 [Compound A593] , please? < 10 nM

---

# TARGET: K-Ras G12C(GMP-PNP) binding to BRAF RBD (Homo sapiens (Human), UniProt P01116+P62937, G12C)
# Sequence (P01116 other isoform, or with tags, fused parts or gaps G12C): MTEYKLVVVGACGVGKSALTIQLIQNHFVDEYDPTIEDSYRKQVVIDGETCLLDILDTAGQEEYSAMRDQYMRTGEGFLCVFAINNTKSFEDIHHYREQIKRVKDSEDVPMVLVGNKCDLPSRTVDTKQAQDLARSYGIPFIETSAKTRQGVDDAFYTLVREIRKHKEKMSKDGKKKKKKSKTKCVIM
# Sequence (P62937 whole entry): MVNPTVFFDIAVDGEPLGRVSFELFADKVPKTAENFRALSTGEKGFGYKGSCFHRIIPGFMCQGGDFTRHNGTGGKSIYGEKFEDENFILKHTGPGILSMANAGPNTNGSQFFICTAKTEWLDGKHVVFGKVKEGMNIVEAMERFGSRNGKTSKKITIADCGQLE
# MEASUREMENT_DESCRIPTION: Disruption of BRAF RBD interaction with K-Ras (FRET / MOA assay), K-Ras G12C
# Type: biochemical
# REPORTED_CONDITIONS: read-out: KRAS G12C FRET IC50
# From the text: Note—The following protocol describes a procedure for monitoring disruption of K-Ras G12C(GMP-PNP) binding to BRAF^RBD by a compound of the invention. This protocol may also be executed substituting other Ras proteins or nucleotides. […]
Readings of IC50 for the listed compounds

COMPOUND | IC50
CCn1c(-c2cccnc2[C@H](C)OC)c2c3cc(ccc31)-c1cc(cc(S(C)(=O)=O)c1)C[C@H](NC(=O)[C@H](C(C)C)N(C)C(C)=O)C(=O)N1CCC[C@H](N1)C(=O)OCC(C)(C)C2 [Compound A154] | 10 to 100 nM
CCn1c(-c2cccnc2[C@H](C)OC)c2c3cc(ccc31)-c1cccc(c1)C[C@H](NC(=O)[C@H](C(C)C)N(C)C(=O)[C@H]1CCNC1)C(=O)N1CCC[C@H](N1)C(=O)OCC(C)(C)C2 [Compound A119] | 100 to 1000 nM
CCn1c(-c2cccnc2[C@H](C)OC)c2c3cc(ccc31)-c1csc(n1)C[C@H](NC(=O)[C@H](C(C)C)N(C)C(=O)N1C[C@H](C)N(C)C[C@H]1C)C(=O)N1CCC[C@H](N1)C(=O)OCC(C)(C)C2 [Compound A300] | < 10 nM

I'd like to know its IC50. The compound in question is CCn1c(-c2cccnc2[C@H](C)OC)c2c3cc(ccc31)C1=C[C@@H](O)CN(C1)C[C@H](NC(=O)[C@H]1[C@H](C)[C@@H]1C)C(=O)N1CCC[C@H](N1)C(=O)OCC(C)(C)C2 [Compound A441] 1000 to 10000 nM

Data request, read-out IC50, for CCn1c(-c2cccnc2[C@H](C)OC)c2c3cc(ccc31)-c1csc(n1)C[C@H](NC(=O)[C@H](C(C)C)N(C)C(=O)N1CC3(CC(N(C)CCO)C3)C1)C(=O)N1CCC[C@H](N1)C(=O)OCC(C)(C)C2 [Compound A467] 1000 to 10000 nM

Look at this compound and give its reported IC50. CCn1c(-c2cccnc2[C@H](C)OC)c2c3cc(ccc31)-c1cccc(c1)C[C@H](NC(=O)[C@H](C(C)C)N(C)C(=O)C1COC1)C(=O)N1CCC[C@H](N1)C(=O)OCC(C)(C)C2 [Compound A246] < 10 nM

Which IC50 value is on record for CCn1c(-c2cccnc2[C@H](C)OC)c2c3cc(ccc31)-c1cc(O)cc(c1)C[C@H](NC(=O)[C@H](C(C)C)N(C)C(=O)[C@@H]1CCCC[C@@H]1N)C(=O)N1CCC[C@H](N1)C(=O)OCC(C)(C)C2 [Compound A395] ? 100 to 1000 nM

Endpoint output: IC50 of CCn1c(-c2cccnc2[C@H](C)OC)c2c3cc(ccc31)-c1cc(O)cc(c1)C[C@H](NC(=O)[C@H](C(C)C)N(C)C(=O)[C@H]1CCC(C(=O)C#CCOC)C1)C(=O)N1CCC[C@H](N1)C(=O)OCC(C)(C)C2 (stereo partly drawn) [Compound A266] . Value? < 10 nM

Quick one: IC50 for CCn1c(-c2cccnc2[C@H](C)OC)c2c3cc(ccc31)-c1csc(n1)C[C@H](NC(=O)[C@H](C(C)C)N(C)C(=O)N1C[C@H]3CN(C)C[C@H]3C1)C(=O)N1CCC[C@H](N1)C(=O)OCC(C)(C)C2 [Compound A313] ? 1000 to 10000 nM
